Recorded values, source the RNAGym collection of RNA variant scans (doi:10.1073/pnas.2313332121).

B1: TPR t1 (parent)
chain: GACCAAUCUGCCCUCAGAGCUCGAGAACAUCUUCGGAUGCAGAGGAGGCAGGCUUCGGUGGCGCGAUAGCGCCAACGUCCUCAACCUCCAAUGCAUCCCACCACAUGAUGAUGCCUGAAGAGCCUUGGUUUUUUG

# Variants of: B1
# assay-method-text: polymerase ribozyme fitness, log enrichment relative to wild type (log ratio); higher = more active; in vitro selection for triplet polymerase activity
Entry flag: yes (1) if polymerase ribozyme fitness (log ratio) reaches -1; no (0) if it does not.

Example results:
U21A U38A G42A G44A U55G | no (0)
C73A C101U G122A U131C | no (0)
C8U A29U C62U A83C C88G A119G | no (0)
C22U C56G U78A | no (0)
G71U G113U | no (0)

Reported polymerase ribozyme fitness (log ratio) at or above -1? G48C G110A
no (0)

For this variant, is measured polymerase ribozyme fitness (log ratio) -1 or higher? G10A G39U A90C U106A
no (0)
